# Format: cell-based
# condition summary: MTS assay, cells treated 24 h; concentration causing 50% cell death; read-out: LC50 Ovcar3 (ovarian cancer)
# Method: A library of cationic, amphipathic peptoid oligomers (“capetoids”) with various chain lengths, charges, helicity, hydrophobicity and amphipathicity have been synthesized. Their activities towards several in vitro cultured cancer cell lines were tested via MTS assays. Primary dermal fibroblasts and freshly isolated red blood cells were also tested to estimate their biosafety. […]
Square brackets hold non-standard residues; d marks the D form. Peptide text beside a SMILES is read from it. Nspe = C[C@H](NCC(=O)O)c1ccccc1; Nlys = NCCCCNCC(=O)O
CC50 listing for selected molecules.
Express it in µM; write the number only.

molecule	value
C[C@@H](c1ccccc1)N(CC(N)=O)C(=O)CN(C(=O)CN(CCCCN)C(=O)CN(C(=O)CN(C(=O)CN(CCCCN)C(=O)CN(C(=O)CN(C(=O)CN(CCCCN)C(=O)CN(C(=O)CN(C(=O)CNCCCCN)[C@@H](C)c1ccccc1)[C@@H](C)c1ccccc1)[C@@H](C)c1ccccc1)[C@@H](C)c1ccccc1)[C@@H](C)c1ccccc1)[C@@H](C)c1ccccc1)[C@@H](C)c1ccccc1 [Peptoid 1, H-(NLys-Nspe-Nspe)4-NH2] (H-[Nlys][Nspe][Nspe][Nlys][Nspe][Nspe][Nlys][Nspe][Nspe][Nlys][Nspe][Nspe]-NH2)	6.5
C[C@@H](c1ccccc1)N(CC(N)=O)C(=O)CN(CCCCN)C(=O)CN(C(=O)CN(C(=O)CN(CCCCN)C(=O)CN(C(=O)CN(C(=O)CN(CCCCN)C(=O)CN(C(=O)CN(C(=O)CNCCCCN)[C@@H](C)c1ccccc1)[C@@H](C)c1ccccc1)[C@@H](C)c1ccccc1)[C@@H](C)c1ccccc1)[C@@H](C)c1ccccc1)[C@@H](C)c1ccccc1 [Peptoid 111mer, H-(NLys-Nspe-Nspe)3-NLys-Nspe-NH2] (H-[Nlys][Nspe][Nspe][Nlys][Nspe][Nspe][Nlys][Nspe][Nspe][Nlys][Nspe]-NH2)	10.5

Any idea what its CC50 is? The molecule is C[C@@H](c1ccccc1)N(CC(N)=O)C(=O)CN(C(=O)CN(CCCCN)C(=O)CN(Cc1ccccc1)C(=O)CN(Cc1ccccc1)C(=O)CN(CCCCN)C(=O)CN(C(=O)CN(C(=O)CN(CCCCN)C(=O)CN(Cc1ccccc1)C(=O)CN(Cc1ccccc1)C(=O)CNCCCCN)[C@@H](C)c1ccccc1)[C@@H](C)c1ccccc1)[C@@H](C)c1ccccc1 [1-Npm2,3,8,9, H-(NLys-Npm-Npm-NLys-Nspe-Nspe)2-NH2]
11

----------
# Type: cell-based
# condition summary: MTS assay, cells treated 24 h; concentration causing 50% cell death; read-out: LC50 MCF7 (breast cancer)
Square brackets hold non-standard residues; d marks the D form. Peptide text beside a SMILES is read from it. Nphe = O=C(O)CNCc1ccccc1; Nlys = NCCCCNCC(=O)O
measured quantity: CC50 (µM)
Express it in µM; write the number only.

Any idea what its CC50 is? The molecule is NCCCCNCC(=O)N(CC(=O)N(CC(=O)N(CCCCN)CC(=O)N(CC(=O)N(CC(=O)N(CCCCN)CC(=O)N(CC(=O)N(CC(=O)N(CCCCN)CC(=O)N(CC(=O)N(CC(N)=O)Cc1ccccc1)Cc1ccccc1)Cc1ccccc1)Cc1ccccc1)Cc1ccccc1)Cc1ccccc1)Cc1ccccc1)Cc1ccccc1 [Peptoid 1achiral, H-(NLys-Npm-Npm)4-NH2] (H-[Nlys][Nphe][Nphe][Nlys][Nphe][Nphe][Nlys][Nphe][Nphe][Nlys][Nphe][Nphe]-NH2)
15
